# condition parameters: in n-propyl acetate, 323.15 K
reported endpoint: solubility (mole fraction)
Simply state the number, no unit and no words.

Specify measured solubility (mole fraction) for "CC1(C)NC(=O)NC1=O" .
0.0234

* * *

# condition parameters: in n-pentanol, 293.15 K
reported endpoint: solubility (mole fraction)
Simply state the number, no unit and no words.

Specify measured solubility (mole fraction) for "CC1(C)NC(=O)NC1=O" .
0.0305

* * *

# condition parameters: in isopropanol, 308.15 K
reported endpoint: solubility (mole fraction)
Simply state the number, no unit and no words.

Specify measured solubility (mole fraction) for "CC1(C)NC(=O)NC1=O" .
0.0714

* * *

# condition parameters: in n-pentanol, 313.15 K
reported endpoint: solubility (mole fraction)

Specify measured solubility (mole fraction) for "CC1(C)NC(=O)NC1=O" .
0.0514

* * *

# condition parameters: in n-pentanol, 283.15 K
reported endpoint: solubility (mole fraction)
Simply state the number, no unit and no words.

Specify measured solubility (mole fraction) for "CC1(C)NC(=O)NC1=O" .
0.0236

* * *

# condition parameters: in methanol, 293.15 K
reported endpoint: solubility (mole fraction)
Simply state the number, no unit and no words.

Specify measured solubility (mole fraction) for "CC1(C)NC(=O)NC1=O" .
0.0806

* * *

# condition parameters: in n-butanol, 313.15 K
reported endpoint: solubility (mole fraction)
Simply state the number, no unit and no words.

Specify measured solubility (mole fraction) for "CC1(C)NC(=O)NC1=O" .
0.0574

* * *

# condition parameters: in methanol, 283.15 K
reported endpoint: solubility (mole fraction)
Simply state the number, no unit and no words.

Specify measured solubility (mole fraction) for "CC1(C)NC(=O)NC1=O" .
0.0647

* * *

# condition parameters: in water, 313.15 K
reported endpoint: solubility (mole fraction)
Simply state the number, no unit and no words.

Specify measured solubility (mole fraction) for "CC1(C)NC(=O)NC1=O" .
0.038

* * *

# condition parameters: in n-propyl acetate, 298.15 K
reported endpoint: solubility (mole fraction)
Simply state the number, no unit and no words.

Specify measured solubility (mole fraction) for "CC1(C)NC(=O)NC1=O" .
0.0138

* * *

# condition parameters: in sec-butanol, 283.15 K
reported endpoint: solubility (mole fraction)
Simply state the number, no unit and no words.

Specify measured solubility (mole fraction) for "CC1(C)NC(=O)NC1=O" .
0.0384

* * *

# condition parameters: in ethanol, 318.15 K
reported endpoint: solubility (mole fraction)
Simply state the number, no unit and no words.

Specify measured solubility (mole fraction) for "CC1(C)NC(=O)NC1=O" .
0.0961

* * *

# condition parameters: in acetonitrile, 318.15 K
reported endpoint: solubility (mole fraction)
Simply state the number, no unit and no words.

Specify measured solubility (mole fraction) for "CC1(C)NC(=O)NC1=O" .
0.0345

* * *

# condition parameters: in isopropanol, 313.15 K
reported endpoint: solubility (mole fraction)
Simply state the number, no unit and no words.

Specify measured solubility (mole fraction) for "CC1(C)NC(=O)NC1=O" .
0.0803

* * *

# condition parameters: in sec-butanol, 308.15 K
reported endpoint: solubility (mole fraction)

Specify measured solubility (mole fraction) for "CC1(C)NC(=O)NC1=O" .
0.074

* * *

# condition parameters: in n-propyl acetate, 288.15 K
reported endpoint: solubility (mole fraction)

Specify measured solubility (mole fraction) for "CC1(C)NC(=O)NC1=O" .
0.0105

* * *

# condition parameters: in methanol, 288.15 K
reported endpoint: solubility (mole fraction)

Specify measured solubility (mole fraction) for "CC1(C)NC(=O)NC1=O" .
0.0719

* * *

# condition parameters: in n-butanol, 293.15 K
reported endpoint: solubility (mole fraction)

Specify measured solubility (mole fraction) for "CC1(C)NC(=O)NC1=O" .
0.0338

* * *

# condition parameters: in acetonitrile, 293.15 K
reported endpoint: solubility (mole fraction)
Simply state the number, no unit and no words.

Specify measured solubility (mole fraction) for "CC1(C)NC(=O)NC1=O" .
0.017

* * *

# condition parameters: in isopropanol, 293.15 K
reported endpoint: solubility (mole fraction)
Simply state the number, no unit and no words.

Specify measured solubility (mole fraction) for "CC1(C)NC(=O)NC1=O" .
0.0481

* * *

# condition parameters: in sec-butanol, 303.15 K
reported endpoint: solubility (mole fraction)
Simply state the number, no unit and no words.

Specify measured solubility (mole fraction) for "CC1(C)NC(=O)NC1=O" .
0.0655

* * *

# condition parameters: in n-propyl acetate, 303.15 K
reported endpoint: solubility (mole fraction)
Simply state the number, no unit and no words.

Specify measured solubility (mole fraction) for "CC1(C)NC(=O)NC1=O" .
0.0155

* * *

# condition parameters: in acetonitrile, 298.15 K
reported endpoint: solubility (mole fraction)
Simply state the number, no unit and no words.

Specify measured solubility (mole fraction) for "CC1(C)NC(=O)NC1=O" .
0.0196

* * *

# condition parameters: in isobutanol, 288.15 K
reported endpoint: solubility (mole fraction)
Simply state the number, no unit and no words.

Specify measured solubility (mole fraction) for "CC1(C)NC(=O)NC1=O" .
0.0284

* * *

# condition parameters: in ethanol, 308.15 K
reported endpoint: solubility (mole fraction)
Simply state the number, no unit and no words.

Specify measured solubility (mole fraction) for "CC1(C)NC(=O)NC1=O" .
0.0757

* * *

# condition parameters: in ethanol, 283.15 K
reported endpoint: solubility (mole fraction)
Simply state the number, no unit and no words.

Specify measured solubility (mole fraction) for "CC1(C)NC(=O)NC1=O" .
0.0412

* * *

# condition parameters: in n-propanol, 323.15 K
reported endpoint: solubility (mole fraction)

Specify measured solubility (mole fraction) for "CC1(C)NC(=O)NC1=O" .
0.0881

* * *

# condition parameters: in water, 323.15 K
reported endpoint: solubility (mole fraction)
Simply state the number, no unit and no words.

Specify measured solubility (mole fraction) for "CC1(C)NC(=O)NC1=O" .
0.0532

* * *

# condition parameters: in n-propyl acetate, 313.15 K
reported endpoint: solubility (mole fraction)
Simply state the number, no unit and no words.

Specify measured solubility (mole fraction) for "CC1(C)NC(=O)NC1=O" .
0.0193

* * *

# condition parameters: in isopropanol, 283.15 K
reported endpoint: solubility (mole fraction)
Simply state the number, no unit and no words.

Specify measured solubility (mole fraction) for "CC1(C)NC(=O)NC1=O" .
0.0366

* * *

# condition parameters: in sec-butanol, 298.15 K
reported endpoint: solubility (mole fraction)
Simply state the number, no unit and no words.

Specify measured solubility (mole fraction) for "CC1(C)NC(=O)NC1=O" .
0.058

* * *

# condition parameters: in water, 308.15 K
reported endpoint: solubility (mole fraction)
Simply state the number, no unit and no words.

Specify measured solubility (mole fraction) for "CC1(C)NC(=O)NC1=O" .
0.0326

* * *

# condition parameters: in isopropanol, 298.15 K
reported endpoint: solubility (mole fraction)
Simply state the number, no unit and no words.

Specify measured solubility (mole fraction) for "CC1(C)NC(=O)NC1=O" .
0.0554

* * *

# condition parameters: in n-propanol, 293.15 K
reported endpoint: solubility (mole fraction)
Simply state the number, no unit and no words.

Specify measured solubility (mole fraction) for "CC1(C)NC(=O)NC1=O" .
0.0424
